Target: OX1 (Homo sapiens)
Sequence (O43613 1-425): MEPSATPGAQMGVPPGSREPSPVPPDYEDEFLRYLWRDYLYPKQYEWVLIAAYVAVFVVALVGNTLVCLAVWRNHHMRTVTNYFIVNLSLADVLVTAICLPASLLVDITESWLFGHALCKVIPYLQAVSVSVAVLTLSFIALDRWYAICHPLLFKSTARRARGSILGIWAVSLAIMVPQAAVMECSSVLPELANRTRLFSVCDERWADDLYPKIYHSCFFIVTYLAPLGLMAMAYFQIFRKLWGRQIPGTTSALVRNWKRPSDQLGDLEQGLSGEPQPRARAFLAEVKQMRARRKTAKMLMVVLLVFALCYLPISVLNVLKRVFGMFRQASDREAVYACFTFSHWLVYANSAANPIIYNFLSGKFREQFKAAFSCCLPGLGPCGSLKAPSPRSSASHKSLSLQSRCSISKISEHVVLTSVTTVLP
Assay: Orexin-receptor binding ability, [125I]-OX-A, CHO cell membranes expressing OX1
Set-up: expressed in transfected cells; host or cells: CHO cells (membrane preparation)
Settings: membranes of recombinant CHO cells, 0.2 nM [125I]-OX-A tracer; read-out: OX1 (IC50)
Classify: label 1 when IC50 is strictly less than 0.4 µM; label 0 when IC50 is not.

Below are worked cases with known answers.
1. COc1ccc(OCC2(c3ccccc3)CC2C(=O)Nc2cc(Cl)ccn2)cc1OC (centres unmarked) [Example 28]; label 1
2. CCn1cc(OCC2(c3ccccc3)CC2C(=O)Nc2ccc(C#N)cn2)ccc1=O (centres unmarked) [Example 55]; label 0
3. Cc1nn(C)c(=O)cc1OC[C@@]1(c2ccccc2)C[C@H]1C(=O)Nc1ccc(Cl)cn1 [Example 95]; label 0

Is IC50 strictly under 0.4 µM for the entry Cc1nc(C(F)F)nn1CC[C@@]1(c2ccccc2)C[C@H]1C(=O)Nc1ccc(F)cc1 [Example 111] ?
label 0

Is IC50 strictly under 0.4 µM for the entry COc1ccc(OCC2(c3ccccc3)CC2C(=O)Nc2ccc(F)cn2)cc1OC (centres unmarked) [Example 10] ?
label 1

Is IC50 strictly under 0.4 µM for the entry COc1ccc(OCC2(c3ccccc3)CC2C(=O)Nc2cc(C)ccn2)cc1OC (centres unmarked) [Example 36] ?
label 1

Is IC50 strictly under 0.4 µM for the entry COc1cc(F)c(OCC2(c3ccccc3)CC2C(=O)Nc2ccccn2)cc1OC (centres unmarked) [Example 78] ?
label 1

Is IC50 strictly under 0.4 µM for the entry CCc1nc(Cl)cn1CCC1(c2ccccc2)CC1C(=O)Nc1ccc(C#N)cn1 (centres unmarked) [Example 114] ?
label 0

Is IC50 strictly under 0.4 µM for the entry COc1ccc(OC[C@@]2(c3ccccc3)C[C@H]2C(=O)Nc2ccccn2)cc1OC [Example 41] ?
label 1

Is IC50 strictly under 0.4 µM for the entry COc1ccc(OCC2(c3ccccc3)CC2C(=O)Nc2cc(C)no2)cc1OC (centres unmarked) [Example 8] ?
label 0

Is IC50 strictly under 0.4 µM for the entry COc1ccc(OCC2(c3ccccc3)CC2C(=O)Nc2nc(C)ns2)cc1OC (centres unmarked) [Example 7] ?
label 0

Is IC50 strictly under 0.4 µM for the entry Cc1ccc(OCC2(c3ccccc3)CC2C(=O)Nc2ccc(Cl)cn2)c(C)n1 (centres unmarked) [Example 62] ?
label 1

Is IC50 strictly under 0.4 µM for the entry CCn1nc(C)c(OC[C@@]2(c3ccccc3)C[C@H]2C(=O)Nc2ccc(F)cc2)cc1=O [Example 98] ?
label 1

====

biological target: OX2 (Homo sapiens); assay: Orexin-receptor binding ability, [125I]-OX-A, CHO cell membranes expressing OX2; parameters: expressed in transfected cells; host or cells: CHO cells (membrane preparation); settings: membranes of recombinant CHO cells, 0.2 nM [125I]-OX-A tracer; read-out: OX2 (IC50)
Sequence (O43614 whole entry): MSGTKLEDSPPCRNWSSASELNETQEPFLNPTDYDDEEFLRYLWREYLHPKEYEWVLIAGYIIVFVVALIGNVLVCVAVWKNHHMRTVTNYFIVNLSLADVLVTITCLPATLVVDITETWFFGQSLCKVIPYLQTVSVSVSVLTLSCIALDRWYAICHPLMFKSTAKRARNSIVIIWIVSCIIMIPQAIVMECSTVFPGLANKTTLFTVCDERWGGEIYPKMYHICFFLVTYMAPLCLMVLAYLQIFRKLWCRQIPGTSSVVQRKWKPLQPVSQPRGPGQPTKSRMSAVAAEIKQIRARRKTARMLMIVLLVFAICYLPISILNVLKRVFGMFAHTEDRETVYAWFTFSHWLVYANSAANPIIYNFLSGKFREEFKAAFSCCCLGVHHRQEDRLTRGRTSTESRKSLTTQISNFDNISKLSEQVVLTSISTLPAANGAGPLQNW
ENDPOINT LABEL: pIC50
Give only the number. pIC50 is defined as minus log10 of concentration in molar units.

1) Cc1ccc(OCC2(c3ccccc3)CC2C(=O)Nc2ccc(Cl)cn2)c(C)n1 (stereo not shown) [Example 62]; 7.21

Bench note: what pIC50 did CCn1nc(C)c(Cl)c1OCC1(c2ccccc2)CC1C(=O)Nc1ccc(Cl)cn1 (stereo not shown) [Example 75] show?
7.59

Bench note: what pIC50 did COc1cn(CCC2(c3ccccc3)CC2C(=O)Nc2ccc(Cl)cn2)ccc1=O (stereo not shown) [Example 117] show?
7.34

Bench note: what pIC50 did Cc1nc(C(F)F)nn1CC[C@@]1(c2ccccc2)C[C@H]1C(=O)Nc1ccc(Cl)cn1 [Example 110] show?
7.44

====

molecular target: OX2 (Homo sapiens); experiment: Antagonism PLAP reporter assay, HEK-293 cells expressing human OX2; conditions: HEK-293, 1 nM human OX-A; IC50 converted to Ki by Cheng-Prusoff equation
Classify: T when Ki is strictly less than 10 nM; F when Ki is not.

Below are worked cases with known answers.
1. COc1ccc(OCC2(c3ccccc3)CC2C(=O)Nc2ccncc2Cl)cc1OC (stereo not drawn); F
2. COc1ccc(OCC2(c3ccccc3)CC2C(=O)Nc2ccc(F)nc2)cc1OC (stereo not drawn); F
3. COc1ccc(OCC2(c3ccccc3)CC2C(=O)Nc2cncc(Cl)c2)cc1OC (stereo not drawn); F
4. COc1ccc(OCC2(c3ccccc3)CC2C(=O)Nc2cc(C#N)ccn2)cc1OC (stereo not drawn); F
5. CCn1cc(OCC2(c3ccccc3)CC2C(=O)Nc2ccc(Cl)cn2)ccc1=O (stereo not drawn); T
6. COc1ccc(OCC2(c3ccccc3)CC2C(=O)Nc2ncc(C)s2)cc1OC (stereo not drawn); F
7. COc1ccc(S(=O)(=O)CC2(c3ccccc3)CC2C(=O)Nc2ccc(Cl)cn2)cc1OC (stereo not drawn); F
8. COc1ccc(OCC2(c3ccccc3)CC2C(=O)Nc2cccc(C)n2)cc1OC (stereo not drawn); F

Is Ki strictly under 10 nM for the entry COc1ccc(OCC2(c3ccccc3)CC2C(=O)Nc2ccc(Cl)cn2)cc1OC (stereo not drawn) ?
T

====

Biological target: OX2 (Homo sapiens)
Assay: Orexin-receptor binding ability, [125I]-OX-A, CHO cell membranes expressing OX2
Set-up: expressed in transfected cells; host or cells: CHO cells (membrane preparation)
Conditions: membranes of recombinant CHO cells, 0.2 nM [125I]-OX-A tracer; read-out: OX2 (IC50)
Method: The assay was carried out using a 96-well Wheat Germ Agglutinin Flash Plate (PerkinElmer). The volume in a single assay well was 100 ul, and the composition of the reaction solution was as follows: […] Cell membranes were prepared from recombinant CHO cells that expressed OX2 or OX1. […] Finally, the radioactivity of each well was measured using a scintillation counter (TopCount, PerkinElmer). […]
In this section, each of the molecules is paired with its reported IC50.
API: value field is a number in nM; no unit string.

The following molecules have reported results that may help.
1) CCn1cc(OC[C@@]2(c3cccc(F)c3)C[C@H]2C(=O)Nc2ccc(C#N)cn2)c(C)n1; 8
2) CCc1nc(Cl)cn1CCC1(c2ccccc2)CC1C(=O)Nc1ccc(F)cn1 (stereo not shown); 49
3) COc1cccc(NC(=O)C2CC2(COc2ccc(OC)c(OC)c2)c2ccccc2)c1 (stereo not shown); 6

Would you kindly look at the next entry?
Bench note: what IC50 did COc1ccc(OCC2(c3ccccc3)CC2C(=O)Nc2cncc(F)c2)cc1OC (stereo not shown) show?
48

====

biological target: OX2 (Homo sapiens); assay: Orexin-receptor binding ability, [125I]-OX-A, CHO cell membranes expressing OX2; parameters: expressed in transfected cells; host or cells: CHO cells (membrane preparation); conditions: membranes of recombinant CHO cells, 0.2 nM [125I]-OX-A tracer; read-out: OX2 (IC50)
In this section, each of the molecules is paired with its reported IC50.
API: value field is a number in nM; no unit string.

1) COc1ccc(OCC2(c3ccccc3)CC2C(=O)Nc2cncc(Cl)c2)cc1OC (stereo not shown) [Example 11]; 29

Bench note: what IC50 did Cc1nc(C(F)F)nn1CC[C@@]1(c2ccccc2)C[C@H]1C(=O)Nc1ccc(F)cc1 [Example 111] show?
41

Bench note: what IC50 did COc1ccc(OCC2(c3ccccc3)CC2C(=O)Nc2ccncc2Cl)cc1OC (stereo not shown) [Example 14] show?
46

Bench note: what IC50 did CCn1cc(OCC2(c3ccccc3)CC2C(=O)Nc2ccc(Cl)cn2)cn1 (stereo not shown) [Example 81] show?
33

====

biological target: OX1 (Homo sapiens); test: Orexin-receptor binding ability, [125I]-OX-A, CHO cell membranes expressing OX1; set-up: expressed in transfected cells; host or cells: CHO cells (membrane preparation); conditions: membranes of recombinant CHO cells, 0.2 nM [125I]-OX-A tracer; read-out: OX1 (IC50)
ENDPOINT LABEL: IC50 (nM)
API: value field is a number in nM; no unit string.

1) COc1ccc(OCC2(c3ccccc3)CC2C(=O)Nc2cc(C)ns2)cc1OC (stereo not drawn); 1050
2) COc1ccc(OCC2(c3ccccc3)CC2C(=O)Nc2nc(C)cs2)cc1OC (stereo not drawn); 847
3) Cc1csc(NC(=O)[C@@H]2C[C@@]2(CCn2nc(C(F)(F)F)nc2C)c2ccccc2)n1; 2250
4) CCc1nc(Cl)cn1CCC1(c2ccccc2)CC1C(=O)Nc1ccc(F)cn1 (stereo not drawn); 944
5) CCn1cc(OC[C@@]2(c3cccc(F)c3)C[C@H]2C(=O)Nc2ccccn2)c(C)n1; 59
6) Cc1cnc(OC[C@@]2(c3ccccc3)C[C@H]2C(=O)Nc2ccc(C#N)cn2)c(C)n1; 74

Would you kindly look at the next entry?
Bench note: what IC50 did COc1ccc(OCC2(c3ccccc3)CC2C(=O)Nc2ncc(C)s2)cc1OC (stereo not drawn) show?
296
